Cited source: PubChem BioAssay (NCATS)

- Assay remarks: Cell Proliferation Assay against the HBL1 Cell Line (AID 651646);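 further: cells exposed to compound for 48 h before reading; 100% = DMSO and 0% = 9.2 µM bortezomib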
- Run parameters: HBL1 DLBCL cells; at 46.1 µM (top of the series)
API: label(entry) gives 1 if the entry's viability, percent of control is strictly smaller than 2%; on equality or larger values it gives -1.

Past entries and their recorded results:
{"Compound": "C[C@@H](Oc1cc(-n2cnc3ccc(CN4CCN(C)CC4)cc32)sc1C(N)=O)c1ccccc1C(F)(F)F", "Cat": -1}
{"Compound": "CN1CC[C@@H](c2c(O)cc(O)c3c(=O)cc(-c4ccccc4Cl)oc23)[C@@H](O)C1", "Cat": -1}
{"Compound": "COc1cc(C(C)C)c2c(c1)S(=O)(=O)N(COc1cc(=O)n3cccc(OCCN4CCCCC4)c3n1)C2=O", "Cat": 1}
{"Compound": "COc1cc2nccc(Oc3ccc(NC(=O)C4(C(=O)Nc5ccc(F)cc5)CC4)cc3)c2cc1OC", "Cat": -1}
{"Compound": "COc1cc2c(Oc3ccc4[nH]c(C)cc4c3F)ncnc2cc1OCCCN1CCCC1", "Cat": 1}
{"Compound": "C=CC(=O)Nc1cc2c(Nc3ccc(F)c(Cl)c3)ncnc2cc1C#CC(C)(C)N1CCN(C)CC1", "Cat": 1}

hey, is viability, percent of control for `O=C(O)c1ccc2cc(-c3ccc(O)c(C45CC6CC(CC(C6)C4)C5)c3)ccc2c1` lower than 2% or not?
1

* * *

- Assay remarks: qHTS profiling for inhibitors of Plasmodium falciparum (DD2) proliferation (AID 743323)
- Run parameters: lower = more inhibition; at 28.7 µM (top of the series)
Experimental readout: activity, percent of control (%)
Number only, in %; omit the unit.

Here is how some molecules turned out for activity, percent of control.
{"Molecule": "CC(C)c1ccccc1Cc1cc(C(=O)Nc2ccc(S(=O)(=O)c3ccccc3C(C)(C)C)cc2)c(O)c(O)c1O", "activity, percent of control (%)": 2.09}
{"Molecule": "Cc1ccc(C(=O)Nc2ccc(CN3CCN(C)CC3)c(C(F)(F)F)c2)cc1C#Cc1cnc2cccnn12", "activity, percent of control (%)": 0.143}
{"Molecule": "CC(=O)OCCN1C(=O)c2c(C)nc3ccc(S(=O)(=O)N4CCOCC4)cc3c2C1=O", "activity, percent of control (%)": 97.6}
{"Molecule": "Nc1nccc(Oc2ccc(NC(=O)c3c[nH]cc(-c4ccc(F)cc4)c3=O)cc2F)c1Cl", "activity, percent of control (%)": 18.6}
{"Molecule": "CC(C)(C)c1cnc(CSc2cnc(NC(=O)C3CCNCC3)s2)o1", "activity, percent of control (%)": 6.95}

Please look up its activity, percent of control: `CN1CCN(c2ccc3nc(-c4c(N)c5c(F)cccc5[nH]c4=O)[nH]c3c2)CC1`
-0.739

Please look up its activity, percent of control: `Cc1cc(Nc2cc(NC(=O)c3c(Cl)cccc3Cl)ccn2)nc(N)n1`
6.07

Please look up its activity, percent of control: `CCCCc1nc2cc(C=CC(=O)NO)ccc2n1CCN(CC)CC`
-0.413

Please look up its activity, percent of control: `CCN1CCN(Cc2ccc(-c3cc4c(N[C@H](C)c5ccccc5)ncnc4[nH]3)cc2)CC1`
1.84

Please look up its activity, percent of control: `Nc1ccccc1NC(=O)c1ccc(CNC(=O)OCc2cccnc2)cc1`
92.8

Please look up its activity, percent of control: `N#Cc1c(O)c2c(-c3ccc(-c4ccccc4O)cc3)csc2[nH]c1=O`
96

Please look up its activity, percent of control: CC(NCc1ccc2c(c1)nc(NC(=O)c1ccc(-c3cn[nH]c3)s1)n2CC(C)(C)O)C(C)(C)C (centres undefined)
-0.339

Please look up its activity, percent of control: `Cc1cc(Nc2cc(N3CCN(C)CC3)nc(Sc3ccc(NC(=O)C4CC4)cc3)n2)n[nH]1`
68.3

Please look up its activity, percent of control: `COc1cccc2nc(-c3cccs3)nc(NN3C(=O)C=C(C)C3=O)c12`
81.6

Please look up its activity, percent of control: `COc1ccc2c(c1)CC[C@@H](CN(C)CC(=O)O)[C@H]2c1ccccc1`
98.6

Please look up its activity, percent of control: `C=CC(=O)Nc1cc2c(Nc3ccc(F)c(Cl)c3)ncnc2cc1OCCCN1CCOCC1`
10.5

Please look up its activity, percent of control: `CC1(C)CCC(c2ccc(Cl)cc2)=C(CN2CCN(c3ccc(C(=O)NS(=O)(=O)c4ccc(N[C@H](CCN5CCOCC5)CSc5ccccc5)c(S(=O)(=O)C(F)(F)F)c4)cc3)CC2)C1`
2.76

Please look up its activity, percent of control: `NC(=O)c1c(OCc2c(F)cc(Br)cc2F)nsc1NC(=O)NCCCCN1CCCC1`
17.3

Please look up its activity, percent of control: `C[C@@H]1CN(CC(=O)Nc2ccc3c(c2)Cc2cccc(-c4cc(=O)cc(N5CCOCC5)o4)c2S3)C[C@H](C)O1`
3.61
